- Experimental system: BCAT2 (Homo sapiens, UniProt O15382)
- Sequence (O15382 28-392): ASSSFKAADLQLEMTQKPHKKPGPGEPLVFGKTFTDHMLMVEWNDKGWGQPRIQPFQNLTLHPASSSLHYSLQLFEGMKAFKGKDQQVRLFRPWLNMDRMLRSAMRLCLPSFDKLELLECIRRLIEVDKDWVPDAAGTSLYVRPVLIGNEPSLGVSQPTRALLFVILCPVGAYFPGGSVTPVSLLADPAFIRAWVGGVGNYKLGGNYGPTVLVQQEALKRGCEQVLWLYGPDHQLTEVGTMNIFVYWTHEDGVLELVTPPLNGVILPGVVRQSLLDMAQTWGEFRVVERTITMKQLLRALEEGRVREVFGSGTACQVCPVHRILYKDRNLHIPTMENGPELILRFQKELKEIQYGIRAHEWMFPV
- Assay text: BCAT2 in vitro enzyme inhibition assay (hBCAT2, glutamate dehydrogenase/diaphorase/resazurin coupled fluorescence read)
- Type: biochemical
- Condition context: hBCAT2, 1 h preincubation at 25° C., one hour reaction; average where tested multiple times
Test readout: IC50

Identify IC50 associated with the molecule `O=C(N[C@H]1CCC[C@@H](n2c(-c3ncccc3OC(F)F)nc3cnc(-c4nc[nH]n4)cc32)C1)c1cc(F)ccn1` < 100 nM

Give IC50 for the following molecule: `O=C(N[C@H]1CCC[C@@H](n2c(-c3c(O)cccc3F)nc3ccc(-c4nc[nH]n4)cc32)C1)c1cc(Cl)ccn1` < 100 nM

Please give measured IC50 of the following entry: `O=c1c2cc(F)ccc2ncn1[C@H]1CCC[C@@H](n2c(-c3ccccc3F)nc3cnc(-c4nc[nH]n4)cc32)C1` < 100 nM

For the molecule `O=C1c2cc(F)ccc2CN1[C@H]1CCC[C@@H](n2c(-c3c(F)cccc3F)nc3cnc(-c4ncccn4)cc32)[C@@H]1O` , give its measured IC50 value. < 100 nM

Provide measured IC50 value, entry: `N#Cc1ccccc1-c1nc2cnc(-c3nc[nH]n3)cc2n1[C@@H]1CCC[C@H](N2Cc3ccc(F)cc3C2=O)C1` < 100 nM

Using the record for `COc1ncc(Cl)cc1C(=O)N[C@H]1CCC[C@@H](n2c(-c3ccccc3F)nc3cnc(-c4nc[nH]n4)cc32)C1` , state its measured IC50. < 100 nM

Answer with reported IC50 of `CN1C[C@@H](N2Cc3ccc(F)cc3C2=O)C[C@@H](n2c(-c3ccccc3OCCO)nc3ccc(-c4ncccn4)cc32)C1` 500 to 1000 nM

Give the value of IC50 reported for the following: `O=C(N[C@H]1CCC[C@@H](n2c(-c3ccccc3F)nc3cnc(-c4nc[nH]n4)cc32)C1)c1cc(Cl)ccc1OC(F)(F)F` < 100 nM

Provide one value: measured IC50 of CC(Oc1ccccc1-c1nc2cnc(-c3nc[nH]n3)cc2n1[C@@H]1CCC[C@H](NC(=O)c2cc(Cl)ccn2)C1)C(F)(F)F (some centres unmarked) [Example 91] > 1000 nM

Specify measured IC50 for `CC(C)Cc1nc2cnc(-c3nc[nH]n3)cc2n1[C@@H]1CCC[C@H](NC(=O)c2cc(Cl)ccc2OC2CC2)C1` . < 100 nM

Input `CN1C[C@@H](NC(=O)c2cc(F)ccc2F)C[C@@H](n2c(-c3ccccc3F)nc3cnc(-c4nc[nH]n4)cc32)C1` , output reported IC50. 100 to 500 nM

Origin of the recorded values: patent US20260334439A1
